- Assay Target: human NCX1 (Homo sapiens)
- Construct: expressed in transfected cells
- Assay Text: NCX1 inhibition, reverse mode (Ca2+ influx into cells), FLIPR Fluo-4 assay
- Format: cell-based
- Cond: NCX1 reverse mode; at 30 μM; read-out: Inhibition in % at 30 μM (NCX1rv; IC50 value not determined)
Readout Label: inhibition at 30 µM (%)
// units = %; emit number, no label

Here's what some known entries look like.
CC(C)c1ccc(NC(=O)c2cnc(Oc3ccc4c(c3)CC[C@@H](c3ccccc3)O4)s2)cc1 ... 38
CC(C)C[C@H](NC(=O)c1cnc(Oc2ccc3c(c2)CC[C@@H](c2ccccc2)O3)s1)C(=O)OC(C)(C)C ... 44
CCOC(=O)C[C@H](O)[C@H](CC1CCCCC1)NC(=O)c1cnc(Oc2ccc3c(c2)CC[C@@H](c2ccccc2)O3)s1 ... 30
O=C(O)CNC(=O)c1cnc(Oc2ccc3c(c2)CCC(c2cccnc2)O3)s1 (centres unmarked) ... 38

Continue with the next molecule.
Using the record for CC(C)C[C@@H](NC(=O)c1cnc(Oc2ccc3c(c2)CC[C@@H](c2ccccc2)O3)s1)C(=O)OC(C)(C)C , state its measured inhibition at 30 µM.
46

* * *

This listing pairs compounds with measured pIC50.
- Assay Target: human NCX1 (Homo sapiens, UniProt P32418)
- Construct: expressed in transfected cells
- Assay Text: NCX1 inhibition, reverse mode (Ca2+ influx into cells), FLIPR Fluo-4 assay
- Format: cell-based
- Cond: inhibition of NCX1 in reverse mode (Ca2+ influx into cells); read-out: NCX1rv IC50
- Experimental: The sodium/calcium exchanger NCX1 can transport calcium ions and sodium ions through the cell membrane. The transport is an exchange of Ca^2+ and Na^+ in two directions depending on membrane potential and ion gradients. […] The effect of the compounds of the invention on NCX1 was determined in CHO cells stably expressing human NCX1 (gene symbol SLC8A1; cf. WO 2009/115238). […]
Where a name gives a salt, the structure may show the parent alone.
pIC50 is a log-scale quantity: -log10 of the concentration expressed in molar.

Here's what some known entries look like.
O=C(NCc1ccno1)c1cnc(Oc2ccc3c(c2)CCC(c2ccsc2)O3)s1 (stereo not shown) [compound 212] ... 6.52
O=C(NC1C2CNCC21)c1cnc(Oc2ccc3c(c2)CCC(c2cccnc2)O3)s1 (stereo not shown) [compound 268] ... 5.60
Cc1ccccc1C1CCc2cc(Oc3nc(C)c(C(=O)N4CC[C@@H](O)C4)s3)ccc2O1 (stereo partly shown) [compound 336] ... 6.22
OCCN(CCO)Cc1cnc(Oc2ccc3c(c2)CC[C@@H](c2ccccc2)O3)s1 [compound 258] ... 6.70
Cc1ccccc1[C@H]1CCc2cc(Oc3ncc(C(=O)NCCO)s3)ccc2O1 [Example 325] ... 6.70

Using the record for O=C(NCc1ccno1)c1cnc(Oc2ccc3c(c2)CCC(c2cncc(F)c2)O3)s1 (stereo not shown) [compound 248] , state its measured pIC50.
6.10

Using the record for Cc1noc(C)c1CCC(=O)NCc1cnc(Oc2ccc3c(c2)CC[C@@H](c2ccccc2)O3)s1 [compound 296] , state its measured pIC50.
6.40

Using the record for O=C(NCc1ccncc1)c1cnc(Oc2ccc3c(c2)CCC(c2cccc(O)c2)O3)s1 (stereo not shown) [compound 174, hydrochloride] , state its measured pIC50.
6.10

Using the record for CCOC(=O)CNC(=O)c1cnc(Oc2ccc3c(c2)CCC(c2ccccc2)O3)s1 (stereo not shown) [compound 308] , state its measured pIC50.
6.70

Using the record for CC(C)CNCc1cnc(Oc2ccc3c(c2)CCC(c2ccccc2)O3)s1 (stereo not shown) [compound 101] , state its measured pIC50.
6.40

Using the record for COc1cc(CNC(=O)c2cnc(Oc3ccc4c(c3)CCC(c3ccccc3)O4)s2)ccn1 (stereo not shown) [compound 10] , state its measured pIC50.
6.22

Using the record for Cc1cc(CNC(=O)c2cnc(Oc3ccc4c(c3)CCC(c3ccccc3)O4)s2)ccn1 (stereo not shown) [compound 9] , state its measured pIC50.
6.10
